Target: HO-1 (rat spleen) (Rattus norvegicus)
Construct: Spleen microsomes were used as a source of HO-1; from tissue; host or cells: spleen microsomal fraction of adult male Sprague-Dawley rats
Sequence (P06762 whole entry): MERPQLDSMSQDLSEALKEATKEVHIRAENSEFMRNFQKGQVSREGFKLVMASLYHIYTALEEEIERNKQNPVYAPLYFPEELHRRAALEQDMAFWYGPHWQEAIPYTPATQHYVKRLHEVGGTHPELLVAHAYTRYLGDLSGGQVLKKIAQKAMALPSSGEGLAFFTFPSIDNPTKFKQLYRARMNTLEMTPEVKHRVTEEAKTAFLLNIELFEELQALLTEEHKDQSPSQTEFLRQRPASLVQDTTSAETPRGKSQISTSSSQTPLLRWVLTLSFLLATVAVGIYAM
Experiment: HO enzymatic activity in rat spleen microsomal fraction (CO formed from methemalbumin, gas chromatography)
Format: biochemical
Conditions: rat spleen microsomes; average ± standard deviation of replicate experiments; read-out: IC50 HO-1 (rat spleen)/μM
Where a name gives a salt, the structure may show the parent alone.
The label fulfilled is reserved for IC50 strictly under 3 µM; not fulfilled covers values equal to or above it.

Clc1ccc(C(Cn2ccnc2)NCc2ccccc2)cc1 (racemic) [dihydrochloride] : not fulfilled

Lab log: compare recorded IC50 with 3 µM; is it strictly lower for COc1ccc(C(=O)Cn2ccnc2)cc1 [hydrochloride] ?
not fulfilled

Report whether reported IC50 is lower than 3 µM (strictly) for O=C(CCn1ccnc1)C(c1ccccc1)c1ccccc1 [hydrochloride]
fulfilled

Quick check: IC50 of c1cn(CCCCCCCCn2ccnc2)cn1 [dihydrochloride] under 3 µM?
not fulfilled

Regarding O=C(/C=C/c1ccccc1)CCn1ccnc1 [hydrochloride] , kindly confirm whether its IC50 is beneath 3 µM.
not fulfilled

In the record for Fc1ccc(SC[C@@H]2CO[C@@](CCc3ccc(Cl)cc3)(Cn3ccnc3)O2)cc1 [hydrochloride] , is IC50 less than 3 µM?
fulfilled

Dear colleague, could you confirm whether IC50 of C[C@@H]1CO[C@@](CCc2ccc(Cl)cc2)(Cn2ccnc2)O1 [hydrochloride] falls below 3 µM? Thanks.
fulfilled

For this compound, is IC50 lower than 3 µM? Clc1ccc(C2(Cn3cncn3)OCCO2)cc1
not fulfilled

Is IC50 of Brc1cccc(C2(Cn3ccnc3)OCCO2)c1 [hydrochloride] strictly below 3 µM?
not fulfilled

In the record for O=C(Cn1cncn1)c1ccc(-c2ccccc2)cc1 , is IC50 less than 3 µM?
fulfilled

---

Biological target: HO-2 (rat brain) (Rattus norvegicus, UniProt P23711)
Construct: brain microsomes were used as a source of HO-2; from tissue; host or cells: brain microsomal fraction of adult male Sprague-Dawley rats
Sequence (P23711 1-315): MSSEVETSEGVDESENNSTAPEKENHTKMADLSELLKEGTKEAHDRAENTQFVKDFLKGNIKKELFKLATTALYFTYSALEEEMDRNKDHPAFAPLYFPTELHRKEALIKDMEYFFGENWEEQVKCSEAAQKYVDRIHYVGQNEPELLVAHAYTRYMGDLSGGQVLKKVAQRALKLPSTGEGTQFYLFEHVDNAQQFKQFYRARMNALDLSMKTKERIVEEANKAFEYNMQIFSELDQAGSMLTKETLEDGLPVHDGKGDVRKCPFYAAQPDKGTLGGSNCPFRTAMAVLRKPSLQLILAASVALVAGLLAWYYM
Test: HO enzymatic activity in rat brain microsomal fraction (CO formed from methemalbumin, gas chromatography)
Type: biochemical
Structures can show the parent of a compound that is named as a salt.
ATTRIBUTE MEASURED: IC50

The following compounds have reported results that may help.
c1ccc(Cn2ccnc2)cc1 [1-Benzyl-1H-imidazole hydrochloride] : > 100 µM
Nc1cccc(SC[C@H]2CO[C@@](CCc3ccc(Cl)cc3)(Cn3ccnc3)O2)c1 [dihydrochloride] : > 100 µM
CC(C(=O)c1ccccc1)n1ccnc1 (racemic) [hydrochloride] : > 100 µM

Query for HO-2 (rat brain) (Rattus norvegicus, UniProt P23711): what IC50 does the record show for OC(CCc1ccccc1)Cn1ncnn1 (racemic) [hydrochloride] ?
> 100 µM

Provide the documented IC50 with HO-2 (rat brain) (Rattus norvegicus, UniProt P23711) as the system for Cc1ccc(S(=O)(=O)OC[C@H]2CO[C@](CCc3ccc(Cl)cc3)(Cn3ccnc3)O2)cc1
120 µM

Every entry's value here was drawn from patent US20140155445A1.
